Source of measurements: patent US12319655B2

# Measured on: B-Raf kinase (SEQ. ID NO: 2) (Homo sapiens (Human), UniProt P15056)
# Sequence (P15056 416-766): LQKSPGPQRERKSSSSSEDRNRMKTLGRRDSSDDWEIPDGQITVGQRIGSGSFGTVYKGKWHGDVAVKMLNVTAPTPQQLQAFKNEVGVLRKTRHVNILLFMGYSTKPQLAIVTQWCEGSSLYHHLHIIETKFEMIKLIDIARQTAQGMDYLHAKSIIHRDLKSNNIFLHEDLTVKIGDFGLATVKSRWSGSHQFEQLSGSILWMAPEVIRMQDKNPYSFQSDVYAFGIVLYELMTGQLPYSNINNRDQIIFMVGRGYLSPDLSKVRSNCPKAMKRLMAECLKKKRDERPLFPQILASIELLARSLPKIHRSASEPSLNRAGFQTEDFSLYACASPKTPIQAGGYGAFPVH
# Assay summary: Biochemical Assay for B-Raf (1)
# Recorded conditions: Table J, biochemical assay (1); read-out: BRAF (1)
pIC50: −log10 of the molar value.
Quantity name: pIC50

Guide cases for pIC50, answers given:
> print(dat)
                                   compound  quantity.name  endpoint.value
1  CNC(=O)c1cc(-c2cncc(-c3cc(NC(=O)c4ccnc(C5(C#N)CC5)c4)ccc3C)c2)ncn1 [Example 393]          pIC50          ≥ 7.00
2  COC(=O)Nc1cc(-c2cccc(-c3cc(NC(=O)Cn4cc(C(C)C)nn4)cnc3C)c2)ccn1 [Example 415]          pIC50    6.00 to 6.30
3  Cc1ccc(NC(=O)c2cnn(CC(F)(F)F)c2)cc1-c1cncc(-c2ccnc(C(N)=O)c2)c1 [Example 381]          pIC50    6.30 to 7.00
4  Cc1ccc(NC(=O)c2ccnc(C(C)(C)F)c2)cc1-c1cc(-c2ccnc3[nH]ncc23)cnn1 [Example 400]          pIC50          ≥ 7.00
5  Cc1cc(F)c(NC(=O)c2ccnc(C(C)(C)F)c2)cc1-c1cncc(-c2ccnc(NC(=O)C3CC3)c2)c1 [Example 399]          pIC50          ≥ 7.00
6  CNC(=O)c1cc(-c2cncc(-c3cc(NC(=O)c4ccnc(C(C)(C)F)c4)ccc3C)c2)ncn1 [Example 379]          pIC50    6.30 to 7.00

Proceeding to the next compound to report its pIC50.
Read the entry Cc1cc(F)c(NC(=O)c2ccnc(C3CC3)c2)cc1-c1cncc(-c2cc(NC(=O)C3CC3)ncn2)c1 [Example 398] and write its reported pIC50.
≥ 7.00
